- Test system: HCC-15
- METHOD_SUMMARY: relative viability (nuclei count vs DMSO), 5 days (fraction); higher = more cells survive
- PARTICULARS: first compound 0.1581 µM
PROPERTY_MEASURED: relative viability
Give only the figure.

Sample answers from the record:
- COc1cc2nccc(Oc3ccc(NC(=O)Nc4cc(C)on4)c(Cl)c3)c2cc1OC [Tivozanib] + Cc1cc(Nc2cc(N3CCN(C)CC3)nc(Sc3ccc(NC(=O)C4CC4)cc3)n2)n[nH]1 [Tozasertib] (partner 0.1 µM): 0.415
- COc1cc2nccc(Oc3ccc(NC(=O)Nc4cc(C)on4)c(Cl)c3)c2cc1OC [Tivozanib] + O=C(CCCCCCC(=O)Nc1ccccc1)NO [Vorinostat] (partner 1 µM): 0.863
- COc1cc2nccc(Oc3ccc(NC(=O)Nc4cc(C)on4)c(Cl)c3)c2cc1OC [Tivozanib] + CS(=O)(=O)N1CCN(Cc2cc3nc(-c4cccc5[nH]ncc45)nc(N4CCOCC4)c3s2)CC1 [Pictilisib] (partner 1 µM): 0.588
- COc1cc2nccc(Oc3ccc(NC(=O)Nc4cc(C)on4)c(Cl)c3)c2cc1OC [Tivozanib] + CC1(C)CCC(c2ccc(Cl)cc2)=C(CN2CCN(c3ccc(C(=O)NS(=O)(=O)c4ccc(N[C@H](CCN5CCOCC5)CSc5ccccc5)c(S(=O)(=O)C(F)(F)F)c4)cc3)CC2)C1 [Navitoclax] (partner 0.5 µM): 0.742
- Nc1ccn([C@@H]2O[C@H](CO)[C@@H](O)[C@@H]2O)c(=O)n1 [Cytarabine] + CCNC(=O)c1noc(-c2cc(C(C)C)c(O)cc2O)c1-c1ccc(CN2CCOCC2)cc1 [Luminespib] (partner 0.01 µM): 0.428

## Input What relative viability value was documented for this compound, COc1cc2nccc(Oc3ccc(NC(=O)Nc4cc(C)on4)c(Cl)c3)c2cc1OC [Tivozanib] + Cc1nc(Nc2ncc(C(=O)Nc3c(C)cccc3Cl)s2)cc(N2CCN(CCO)CC2)n1 [Dasatinib] (partner 0.075 µM) ?
## Output 0.67

## Input Further, for Nc1ccn([C@@H]2O[C@H](CO)[C@@H](O)[C@@H]2O)c(=O)n1 [Cytarabine] + COc1cccc2cc(-c3nc([C@H]4CC[C@H](C(=O)O)CC4)n4ncnc(N)c34)[nH]c12 [OSI-027] (partner 0.5 µM) ?
## Output 0.56

## Input // next record COc1cc2nccc(Oc3ccc(NC(=O)Nc4cc(C)on4)c(Cl)c3)c2cc1OC [Tivozanib] + CS(=O)(=O)CCNCc1ccc(-c2ccc3ncnc(Nc4ccc(OCc5cccc(F)c5)c(Cl)c4)c3c2)o1 [Lapatinib] (partner 2 µM)
## Output 0.977
